Tested on: Soybean Looper (Chrysodeixis includens, PSEPIN, SBL)
assay.overview: Bioassay 4: soybean looper, artificial diet, 128-cell tray
Type: in vivo
measurement.parameters: AI alone, 0.000004 wt %

compound	experimental.system	Average % Control AI
Cc1c(COC(=O)[C@@H]2[C@H](/C=C(\Cl)C(F)(F)F)C2(C)C)cccc1-c1ccccc1 (racemic)	Soybean Looper (Chrysodeixis includens, PSEPIN, SBL)	0.0%
CCOC(=O)OC1=C(c2cc(C)ccc2C)C(=O)N[C@]12CC[C@@H](OC)CC2	Soybean Looper (Chrysodeixis includens, PSEPIN, SBL)	12.5%
O=c1c(-c2cccc(C(F)(F)F)c2)c([O-])[n+](Cc2cncnc2)c2ccccn12	Soybean Looper (Chrysodeixis includens, PSEPIN, SBL)	12.5%
O=C1C=C(N(Cc2ccc(Cl)nc2)CC(F)F)CO1	Soybean Looper (Chrysodeixis includens, PSEPIN, SBL)	0.0%
CC1=NNC(=O)N(/N=C/c2cccnc2)C1	Soybean Looper (Chrysodeixis includens, PSEPIN, SBL)	12.5%
CCN(C(=O)CCS(C)(=O)=O)c1sc(-c2cccnc2)nc1Cl	Soybean Looper (Chrysodeixis includens, PSEPIN, SBL)	12.5%
CON=CNC(=O)c1ccc(C2=NOC(c3cc(Cl)cc(Cl)c3)(C(F)(F)F)C2)cc1C (centres unmarked) [Fluxametamide]	Soybean Looper (Chrysodeixis includens, PSEPIN, SBL)	12.5%
CC1(C)[C@H](/C=C(\Cl)C(F)(F)F)[C@@H]1C(=O)O[C@@H](C#N)c1cccc(Oc2ccccc2)c1	Soybean Looper (Chrysodeixis includens, PSEPIN, SBL)	12.5%
FC(F)(F)c1ccc(COc2ncncc2C2OCCCO2)cc1	Soybean Looper (Chrysodeixis includens, PSEPIN, SBL)	0.0%
O=C(N=c1ccccn1Cc1ccc(Cl)nc1)C(F)(F)F	Soybean Looper (Chrysodeixis includens, PSEPIN, SBL)	0.0%
CNC(=O)c1cc(Cl)cc(C)c1NC(=O)c1cc(Br)nn1-c1ncccc1Cl	Soybean Looper (Chrysodeixis includens, PSEPIN, SBL)	37.5%
CC(c1ccc(C(F)(F)F)nc1)S(C)(=O)=NC#N (centres unmarked)	Soybean Looper (Chrysodeixis includens, PSEPIN, SBL)	12.5%
CN1COCN(Cc2cnc(Cl)s2)/C1=N\[N+](=O)[O-]	Soybean Looper (Chrysodeixis includens, PSEPIN, SBL)	0.0%
COC(=O)N(C(=O)N1CO[C@@]2(C(=O)OC)Cc3cc(Cl)ccc3C2=N1)c1ccc(OC(F)(F)F)cc1	Soybean Looper (Chrysodeixis includens, PSEPIN, SBL)	0.0%

---

Tested on: Soybean Looper (Chrysodeixis includens, PSEPIN, SBL)
assay.overview: Bioassay 4: soybean looper, artificial diet, 128-cell tray
Type: in vivo
measurement.parameters: AI alone, 0.000004 wt %

molecule	unit.text	Average % Control AI
CC(COc1ccc(Oc2ccccc2)cc1)Oc1ccccn1 (centres unmarked) [Pyriproxyfen]	%	12.5
O=[N+]([O-])/N=C1\NCCN1Cc1ccc(Cl)nc1 [Imidacloprid]	%	12.5
COc1cccc(C(=O)NN(C(=O)c2cc(C)cc(C)c2)C(C)(C)C)c1C [Methoxyfenozide]	%	25.0
N#Cc1nn(-c2c(Cl)cc(C(F)(F)F)cc2Cl)c(N)c1[S+]([O-])C(F)(F)F (centres unmarked) [Fipronil]	%	0.0
CC(C(=O)Nc1cn(-c2cccnc2)nc1Cl)S(C)(=O)=O (centres unmarked) [AI-2]	%	0.0
C[C@]1(COC(=O)C2CC2)[C@@H]2C[C@H](O)[C@@]3(C)Oc4cc(-c5cccnc5)oc(=O)c4[C@H](O)[C@@H]3[C@@]2(C)CC[C@@H]1OC(=O)C1CC1 [Afidopyropen]	%	0.0
N#CCNC(=O)c1cnccc1C(F)(F)F [Flonicamid]	%	0.0
CNC(=O)c1cc(C#N)cc(C)c1NC(=O)c1cc(Br)nn1-c1ncccc1Cl [Cyantraniliprole]	%	0.0
